- Protocol: self-splicing fitness, log relative to wild type (ln ratio); higher = more splicing; Tetrahymena group I intron in knt gene, E. coli kanamycin selection, DiMSum; sequences stand for … in CUCUCU…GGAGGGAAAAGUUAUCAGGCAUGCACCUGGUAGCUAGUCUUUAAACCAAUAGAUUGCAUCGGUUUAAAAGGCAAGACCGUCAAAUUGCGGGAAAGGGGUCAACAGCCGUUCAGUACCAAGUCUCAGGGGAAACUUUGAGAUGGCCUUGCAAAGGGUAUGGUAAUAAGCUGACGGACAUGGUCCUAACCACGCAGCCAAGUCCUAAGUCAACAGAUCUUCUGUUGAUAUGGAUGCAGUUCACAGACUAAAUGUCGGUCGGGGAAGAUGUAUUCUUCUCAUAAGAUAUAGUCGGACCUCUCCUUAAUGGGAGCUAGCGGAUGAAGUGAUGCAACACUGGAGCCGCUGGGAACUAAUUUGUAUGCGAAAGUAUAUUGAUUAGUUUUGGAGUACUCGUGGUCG;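 also: selection with 25 µg/mL kanamycin versus none on LB agar overnight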
- Condition summary: 37 °C
// label = fulfilled if self-splicing fitness (ln) is not less than -2, otherwise not fulfilled

Record sequence | Assigned category
AUCGAGCAAUAUUACGAAAA | not fulfilled
GCACAGCAAUAUUACGUGUU | not fulfilled
GGAGAGCAAUAUUACGUCUA | fulfilled
CUCAAGCAAUAUUACGCAUG | fulfilled
CACAAGCAAUAUUACGAGCU | not fulfilled
AUAGAGCAAUAUUACGAACU | fulfilled
UAGGAGCAAUAUUACGCAUA | fulfilled
CAGAAGCAAUAUUACGCAGU | not fulfilled

Lookup: Does self-splicing fitness (ln) meet or surpass -2 for GUGUAGCAAUAUUACGUGCU ?
Found: fulfilled

###

Each entry below carries its recorded self-splicing fitness (ln).
- Protocol: self-splicing fitness, log relative to wild type (ln ratio); higher = more splicing; Tetrahymena group I intron in knt gene, E. coli kanamycin selection, DiMSum; sequences stand for … in CUCUCU…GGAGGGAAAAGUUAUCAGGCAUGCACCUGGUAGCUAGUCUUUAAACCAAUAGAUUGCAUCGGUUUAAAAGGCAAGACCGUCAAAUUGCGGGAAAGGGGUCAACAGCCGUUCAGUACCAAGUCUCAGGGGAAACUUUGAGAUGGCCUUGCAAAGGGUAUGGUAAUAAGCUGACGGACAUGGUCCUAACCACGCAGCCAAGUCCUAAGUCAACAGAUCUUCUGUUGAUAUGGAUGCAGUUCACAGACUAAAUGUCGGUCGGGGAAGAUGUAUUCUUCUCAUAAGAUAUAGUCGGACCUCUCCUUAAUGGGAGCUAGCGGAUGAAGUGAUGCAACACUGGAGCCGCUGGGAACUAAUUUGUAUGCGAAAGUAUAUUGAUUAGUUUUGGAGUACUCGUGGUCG
- Condition summary: 37 °C
Hey, just send me the number, nothing else.

The recorded self-splicing fitness (ln) for entry ACUUAGCAAUAUUACGAGGU equals -1.96

The recorded self-splicing fitness (ln) for entry GCAUAGCAAUAUUACGGGCC equals -1.97

The recorded self-splicing fitness (ln) for entry GAGAAGCAAUAUUACGACGG equals -1.97

###

- Protocol: self-splicing fitness, log relative to wild type (ln ratio); higher = more splicing; Tetrahymena group I intron in knt gene, E. coli kanamycin selection, DiMSum; sequences stand for … in CUCUCU…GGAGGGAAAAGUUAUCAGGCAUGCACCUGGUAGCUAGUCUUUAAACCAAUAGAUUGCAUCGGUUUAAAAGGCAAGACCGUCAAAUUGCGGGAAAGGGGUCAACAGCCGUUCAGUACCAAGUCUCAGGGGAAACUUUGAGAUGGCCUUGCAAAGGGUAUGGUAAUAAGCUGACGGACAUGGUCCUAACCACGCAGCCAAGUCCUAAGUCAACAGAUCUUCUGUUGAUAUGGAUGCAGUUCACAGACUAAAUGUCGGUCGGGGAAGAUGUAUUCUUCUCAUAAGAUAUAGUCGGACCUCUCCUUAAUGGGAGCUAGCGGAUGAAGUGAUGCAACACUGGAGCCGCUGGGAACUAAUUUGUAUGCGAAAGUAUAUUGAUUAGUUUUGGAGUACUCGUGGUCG
- Condition summary: 30 °C
# label = bin(measured self-splicing fitness (ln)), where bins are A (below -3), B (-3 to below -2), C (-2 or more)

Illustrative cases are given below, each with its answer.
Record sequence | Assigned category
ACCUAGCAAUAUUACGUUCC | C
AAGCAGCAAUAUUACGGUUA | C
CAAGAGCAAUAUUACGGAGU | A

Lookup: Into which category would you place AUAGAGCAAUAUUACGUAUA ?
Found: B

Lookup: Into which category would you place UGCGAGCAAUAUUACGAUAA ?
Found: A

Lookup: Into which category would you place AGUGAGCAAUAUUACGAAGU ?
Found: B

Lookup: Into which category would you place GAGCAGCAAUAUUACGUUAG ?
Found: B

Lookup: Into which category would you place GGGAAGCAAUAUUACGCCAG ?
Found: A
